test system: HT29 colon; assay: NCI tumour cell line growth inhibition, 48 h
measured_property: TGI

Cc1sc2nc3n(c(=O)c2c1C)N=CN(c1ccccc1)C3    > 100 µM
CC(C)(C)OC(=O)NC(C)(C)C(=O)NCCC(=O)O    > 100 µM
Cc1ccc2c(c1)nc(N)n[n+]2[O-]    > 100 µM

Report TGI for O=[N+]([O-])[C@@H]1C2C=CC(C2)[C@H]1Cl (some centres undefined) please.
> 100 µM

Another: CC(C)(C)OC(=O)NC(Cc1ccccc1)C(=O)OCN1C(=O)C2C3C=CC(C2C1=O)C1C2C(=O)N(COC(=O)C(Cc4ccccc4)NC(=O)OC(C)(C)C)C(=O)C2C31 (centres undefined)
> 100 µM

====

system: OVCAR-4 ovarian; test: NCI tumour cell line growth inhibition, 48 h
measured_property: TGI

Study these solved cases before continuing.
O=C1CC(O)c2c1csc2Br (stereo not drawn)    96.2 µM
COc1ccc(Nc2[nH]c(C(C)=O)c(N)c2C(=S)Nc2ccccc2)cc1    > 100 µM
Cc1ccc(N=Nc2c3c(c(O)c4ccccc24)CCC(C)(C)O3)cc1    44.5 µM
Cc1ccccc1C1OC1C(=O)c1ccccc1N (stereo not drawn)    > 100 µM
Nc1n[nH]c2ccc([C@@H]3Nc4ccc5[nH]ncc5c4[C@H]4[C@H]5CCC(C5)[C@H]43)cc12    > 100 µM

Report TGI for CCOC(=O)C1=C(C)Nc2ccccc2S1 please.
> 100 µM

Another: N#CC1(c2nc3ccccc3o2)C(=O)C(=O)N(C2C3CC4CC(C3)CC2C4)C(=O)C1=O (stereo not drawn)
> 100 µM

Another: N#Cc1c(NC(=O)c2cccc(C(F)(F)F)c2)sc2c1CCC(=O)C2
0.952 µM

====

Each entry below lists one item and its recorded TGI value.
tested on: HS 578T breast; assay: NCI tumour cell line growth inhibition, 48 h

O=C1CC(c2ccco2)C2(C(=O)NC(=O)NC2=O)C(c2ccco2)C1 (stereo not drawn)    > 75 µM
O=C(/C(=C(/Br)I)c1ccccc1)c1ccccc1    > 100 µM

Field: next molecule
Report TGI for c1ccc(C[P+]2(c3ccccc3)c3ccccc3-c3ccccc32)cc1 please.
> 100 µM

====

system: HCC-2998 colon; test: NCI tumour cell line growth inhibition, 48 h
Each entry below lists one item and its recorded GI50 value.

Study these solved cases before continuing.
C#Cc1cnc(=O)n(C2CC(O)C(CO)O2)c1 (configuration not stated)    > 100 µM
Nc1n[nH]c2ccc([C@@H]3Nc4ccc5[nH]ncc5c4[C@H]4[C@H]5CCC(C5)[C@H]43)cc12    0.381 µM
CN(C)CC(=O)N1CCC(c2ccc(NC(=O)c3ncc(C#N)[nH]3)c(C3=CCCCC3)c2)CC1    5.74 µM
CCC(C)C1NC(=O)c2nc(oc2-c2ccccc2)-c2csc(n2)-c2csc(n2)-c2nc(oc2C)-c2coc(n2)CNC(=O)C(C(C)CC)NC1=O (configuration not stated)    0.0543 µM
O=C(CSc1nc2ccc([N+](=O)[O-])cc2[nH]1)Nc1ccc(F)c(Cl)c1    2.95 µM

Report GI50 for O=C(NNc1nc2c(F)cccc2n2cccc12)c1cnccn1 please.
0.867 µM

Another: COc1cc(C(=O)NC2c3ccccc3-c3ccccc32)c(N)cc1OCc1ccccc1
> 100 µM

Another: Clc1ccccc1C(c1ccccc1)(c1ccccc1)n1ccnc1
3.3 µM

Another: N#CC(=C1SCS1)[N+](=O)[O-]
4.26 µM

Another: COc1ccc(C(=S)N2CCN(c3cccc(Cl)c3)CC2)cc1
> 100 µM

Another: COc1cc(-n2cc(-c3ccc(Cl)c(Cl)c3)nc2SCc2ccccc2)cc(OC)c1OC
> 100 µM

Another: CN1CCN(CC#Cc2cccc(C(=O)c3cnn(-c4ccc(F)cc4)c3N)c2)CC1
> 25 µM
